# Test system: 186277-243-T-J2-PDC multi-cell spheroid viability;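 also: spheroids exposed to compounds for seven days before viability reading; 100% = DMSO vehicle control viability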
# measurement_description: Anticancer human tumor 186277-243-T-J2-PDC patient-derived colon adenocarcinoma cell line growth inhibition [PI3K]
# condition_parameters: second compound 0.0316 µM; first compound 0.316 µM; stronger effect = lower value
property_label: viability, T/C (%)

molecule	assay_system	property_label	unit_abbrev	quantitative_readout
CNC(=O)c1ccc(N2C(=S)N(c3ccc(C#N)c(C(F)(F)F)c3)C(=O)C2(C)C)cc1F + COc1c(OCCCN2CCOCC2)ccc2c3n(c(=NC(=O)c4cnc(N)nc4)nc12)CCN3	186277-243-T-J2-PDC multi-cell spheroid viability	viability, T/C	%	81.3
Cn1ncc(Cl)c1-c1cc(C(=O)NC(CN)Cc2cccc(F)c2)sc1Cl (stereo not given) + CC(Nc1ccc2c(c1)OCCn1cc(N3C(=O)OCC3C(F)F)nc1-2)C(N)=O	186277-243-T-J2-PDC multi-cell spheroid viability	viability, T/C	%	45.6
CNC(=O)c1ccc(N2C(=S)N(c3ccc(C#N)c(C(F)(F)F)c3)C(=O)C2(C)C)cc1F + Cc1nc(NC(=O)N2CCCC2C(N)=O)sc1-c1ccnc(C(C)(C)C(F)(F)F)c1	186277-243-T-J2-PDC multi-cell spheroid viability	viability, T/C	%	102
CCCS(=O)(=O)Nc1ccc(F)c(C(=O)c2c[nH]c3ncc(-c4ccc(Cl)cc4)cc23)c1F + COc1c(OCCCN2CCOCC2)ccc2c3n(c(=NC(=O)c4cnc(N)nc4)nc12)CCN3	186277-243-T-J2-PDC multi-cell spheroid viability	viability, T/C	%	96.3
CC(Cn1ccc(-c2ccc(C#N)c(Cl)c2)n1)NC(=O)c1cc(C(C)O)[nH]n1 (stereo not given) + CC(Nc1ccc2c(c1)OCCn1cc(N3C(=O)OCC3C(F)F)nc1-2)C(N)=O	186277-243-T-J2-PDC multi-cell spheroid viability	viability, T/C	%	102
